Assign TGI to each entry below.
Test system: SK-OV-3 ovarian
Assay Info: NCI tumour cell line growth inhibition, 48 h
Give bare numbers, in µM.

- Compound: "CC(C)OP(=O)(OC(C)C)C(C(C)C)N(C)/C(N)=N\\C1=NC(C(F)(F)F)(C(F)(F)F)N=C(C(C(F)(F)F)C(F)(F)F)O1 (stereo not given)"
  Unit Abbreviation: "µM"
  TGI: 19.8

Note: attention shifts to another entry.
Record request: TGI value, item NC(=O)[C@H]1CCN(c2ncnc(N)c2F)C[C@@H]1N1CCC[C@@H](Nc2cc(Cl)cc(C(F)(F)F)c2)C1=O 56.3

---

System: NCI/ADR-RES ovarian
Assay Info: NCI tumour cell line growth inhibition, 48 h
Where a SMILES comes first, the peptide text is derived from it. The star is where a group is joined. Cbz = O=C(OCc1ccccc1)*; OBn = c1ccc(CO*)cc1
Quantity Measured: TGI

A selection of reference data follows.
- Compound: "COC(=O)[C@H](Cc1ccccc1)NC(=O)NCCN(CCNC(=O)N[C@@H](Cc1ccccc1)C(=O)OC)C(=O)N[C@@H](Cc1ccccc1)C(=O)OC"
  Quantity Measured: "TGI"
  Assay Value: "> 100 µM"
- Compound: "CN(C)c1ccc2nc3ccc(=[N+](C)C)cc-3oc2c1"
  Quantity Measured: "TGI"
  Assay Value: "97.9 µM"
- Compound: "O=C(O)c1c[nH]c2c(Sc3ccccc3)nccc2c1=O"
  Quantity Measured: "TGI"
  Assay Value: "> 100 µM"
- Compound: "COC(=O)CNC(=O)C(C)NC(=O)C(CC(=O)OCc1ccccc1)NC(=O)OCc1ccccc1 (stereo not drawn) (Cbz-Asp(OBn)-Ala-Gly-OMe; configuration not given here)"
  Quantity Measured: "TGI"
  Assay Value: "> 100 µM"
- Compound: "O=C1c2ccccc2C(=O)N1CC1(C(=O)O)NCCS1(=O)=O (stereo not given)"
  Quantity Measured: "TGI"
  Assay Value: "> 100 µM"

// for each compound in input: emit TGI
1. O=C(O)[C@@H]1C2CC([C@@H]1C(=O)O)[C@H](N1C(=O)CCC1=O)[C@@H]2Br (stereo not given in full)
2. O=c1[nH]c(=O)n(C2OC(CO)C(O)C(F)C2O)cc1F (stereo not given)
3. c1ccc2[nH]c(-c3ccc(N4CCN(c5ccc(-c6nc7ccccc7[nH]6)cc5)CC4)cc3)nc2c1

1. > 100 µM
2. > 100 µM
3. > 100 µM
